// data source = ChEMBL document CHEMBL1142367

Biological target: Glucocorticoid receptor (Homo sapiens)
Test: Displacement of [3H]dexamethasone from human recombinant GR
OBSERVABLE: Ki
Reply with the number and its unit after it.

MOLECULE | EXPERIMENTAL SYSTEM | Ki
CC(C)NC[C@]12Cc3cnn(-c4ccc(F)cc4)c3C=C1CCN(S(=O)(=O)c1ccc(C(C)(C)C)cc1)C2 | Glucocorticoid receptor (Homo sapiens) | 2.1 nM
COCCOC[C@]12Cc3cnn(-c4ccc(F)cc4)c3C=C1CCN(S(=O)(=O)c1ccc(F)cc1)C2 | Glucocorticoid receptor (Homo sapiens) | 0.6 nM
COCCNC[C@]12Cc3cnn(-c4ccc(F)cc4)c3C=C1CCN(S(=O)(=O)c1ccc(C(C)(C)C)cc1)C2 | Glucocorticoid receptor (Homo sapiens) | 1 nM
C=CCNC[C@]12Cc3cnn(-c4ccc(F)cc4)c3C=C1CCN(S(=O)(=O)c1ccc(C(C)(C)C)cc1)C2 | Glucocorticoid receptor (Homo sapiens) | 0.9 nM
COCCOC[C@]12Cc3cnn(-c4ccc(F)cc4)c3C=C1CCN(S(=O)(=O)c1ccccc1)C2 | Glucocorticoid receptor (Homo sapiens) | 0.5 nM

Inquiry: Please report the recorded Ki for CS(=O)(=O)N1CCC2=Cc3c(cnn3-c3ccc(F)cc3)CC2(Cc2ccc(F)cc2)C1 (racemic) .
Reply text: 13 nM

Inquiry: How about this molecule: O=S(=O)(c1ccccc1)N1CCC2=Cc3c(cnn3-c3ccc(F)cc3)C[C@]2(CN2CCCC2)C1
Reply text: 1.5 nM

Inquiry: How about this molecule: COC[C@]12Cc3cnn(-c4ccc(F)cc4)c3C=C1CCN(S(=O)(=O)c1ccc(F)cc1)C2
Reply text: 1.4 nM

----------
Test system: Canis familiaris
Assay: AUC in dog at […], po
Type: ADME, organism-based, Canis lupus familiaris, Plasma
Parameters: dose 2.5 mg/kg, route oral
Conditions: in vivo
OBSERVABLE: AUC (µg/h/mL)
Answer in µg/h/mL, number only, no unit symbol.

COMPOUND SMILES | RESULT UNITS | AUC
CC(C)(C)c1ccc(S(=O)(=O)N2CCC3=Cc4c(cnn4-c4ccc(F)cc4)C[C@]3(C)C2)cc1 | µg/h/mL | 1.684
COC[C@]12Cc3cnn(-c4ccc(F)cc4)c3C=C1CCN(S(=O)(=O)c1ccc(F)cc1)C2 | µg/h/mL | 1.676
COC[C@]12Cc3cnn(-c4ccc(F)cc4)c3C=C1CCN(S(=O)(=O)c1ccc(C(F)(F)F)cc1)C2 | µg/h/mL | 3.638

Inquiry: Please report the recorded AUC for COC[C@]12Cc3cnn(-c4ccc(F)cc4)c3C=C1CCN(S(=O)(=O)c1ccccc1)C2 .
Reply text: 0.894

----------
Biological target: Glucocorticoid receptor (Homo sapiens)
Experiment: Antagonist activity at GR in SW1353/MMTV5 cells assessed as inhibition of dexamethasone-induced luciferase expression
Assay type: functional, cell-based
OBSERVABLE: Ki (nM)
Answer in nM, number only, no unit symbol.

Guide cases for Ki, answers given:
COMPOUND | REPORTED
Cc1ccc(S(=O)(=O)N2CCC3=Cc4c(cnn4-c4ccc(F)cc4)CC3(Cc3ccc(F)cc3)C2)cc1 (racemic) | 17
CC(C)(C)c1ccc(S(=O)(=O)N2CCC3=Cc4c(cnn4-c4ccc(F)cc4)C[C@]3(Cc3ccccc3)C2)cc1 | 4.7

Consider the additional compound presented here.
Inquiry: Please report the recorded Ki for CC(C)(C)c1ccc(S(=O)(=O)N2CCC3=Cc4c(cnn4-c4ccc(F)cc4)C[C@]3(CN3CCOCC3)C2)cc1 .
Reply text: 7.1

----------
Assay: Half life in dog at […], po
Type: ADME, organism-based, Canis lupus familiaris
Set-up: dose 2.5 mg/kg, route oral
Conditions: in vivo
# key: entry, value: half-life
Answer in h, number only, no unit symbol.

Guide cases for half-life, answers given:
COMPOUND SMILES | RESULT UNITS | half-life
COC[C@]12Cc3cnn(-c4ccc(F)cc4)c3C=C1CCN(S(=O)(=O)c1ccc(F)cc1)C2 | h | 4.2
COC[C@]12Cc3cnn(-c4ccc(F)cc4)c3C=C1CCN(S(=O)(=O)c1ccccc1)C2 | h | 5.9
CC(C)(C)c1ccc(S(=O)(=O)N2CCC3=Cc4c(cnn4-c4ccc(F)cc4)C[C@]3(C)C2)cc1 | h | 4.2

Consider the additional compound presented here.
Inquiry: Please report the recorded half-life for COC[C@]12Cc3cnn(-c4ccc(F)cc4)c3C=C1CCN(S(=O)(=O)c1ccc(C(F)(F)F)cc1)C2 .
Reply text: 6.7

----------
Target: Glucocorticoid receptor (Homo sapiens, UniProt P04150)
Sequence (P04150 whole entry): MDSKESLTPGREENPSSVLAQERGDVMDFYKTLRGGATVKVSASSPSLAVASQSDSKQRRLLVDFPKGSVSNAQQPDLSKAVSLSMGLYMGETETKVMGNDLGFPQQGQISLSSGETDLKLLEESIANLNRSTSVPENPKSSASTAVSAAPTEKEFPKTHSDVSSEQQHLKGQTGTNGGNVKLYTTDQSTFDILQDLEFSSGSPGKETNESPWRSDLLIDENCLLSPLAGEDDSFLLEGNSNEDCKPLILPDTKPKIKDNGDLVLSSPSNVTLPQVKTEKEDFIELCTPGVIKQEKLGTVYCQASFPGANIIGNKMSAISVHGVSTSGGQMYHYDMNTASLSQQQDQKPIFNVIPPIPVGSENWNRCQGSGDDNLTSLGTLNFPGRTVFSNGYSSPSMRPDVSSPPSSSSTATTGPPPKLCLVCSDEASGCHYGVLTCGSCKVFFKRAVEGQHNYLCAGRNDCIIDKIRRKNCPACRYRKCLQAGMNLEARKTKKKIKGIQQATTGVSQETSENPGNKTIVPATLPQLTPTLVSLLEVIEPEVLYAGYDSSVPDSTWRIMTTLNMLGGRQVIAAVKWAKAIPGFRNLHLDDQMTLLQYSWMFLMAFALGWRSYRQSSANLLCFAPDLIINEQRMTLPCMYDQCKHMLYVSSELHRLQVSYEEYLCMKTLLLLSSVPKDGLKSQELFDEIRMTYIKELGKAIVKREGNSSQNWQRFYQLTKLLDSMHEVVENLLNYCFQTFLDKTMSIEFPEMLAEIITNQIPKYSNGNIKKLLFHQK
Experiment: Antagonist activity at GR in SW1353/MMTV5 cells assessed as inhibition of dexamethasone-induced luciferase expression
Type: functional, cell-based
# key: entry, value: pKi
Bear in mind: pKi is minus log10 of a mol/L concentration; give just that figure.

Inquiry: Please report the recorded pKi for C=CCNC[C@]12Cc3cnn(-c4ccc(F)cc4)c3C=C1CCN(S(=O)(=O)c1ccc(C(C)(C)C)cc1)C2 .
Reply text: 7.96

Inquiry: How about this compound: O=S(=O)(c1ccc(N2CCOCC2)cc1)N1CCC2=Cc3c(cnn3-c3ccc(F)cc3)CC2(Cc2ccc(F)cc2)C1 (racemic)
Reply text: 7.96

Inquiry: How about this compound: CCOC[C@]12Cc3cnn(-c4ccc(F)cc4)c3C=C1CCN(S(=O)(=O)c1ccc(C(C)(C)C)cc1)C2
Reply text: 8.72

Inquiry: How about this compound: CN(C)C[C@]12Cc3cnn(-c4ccc(F)cc4)c3C=C1CCN(S(=O)(=O)c1ccc(C(C)(C)C)cc1)C2
Reply text: 8.16

Inquiry: How about this compound: CC(C)(C)c1ccc(S(=O)(=O)N2CCC3=Cc4c(cnn4-c4ccc(F)cc4)C[C@]3(CN3CCCC3)C2)cc1
Reply text: 8.47

Inquiry: How about this compound: CC(C)(C)c1ccc(S(=O)(=O)N2CCC3=Cc4c(cnn4-c4ccc(F)cc4)C[C@]3(CN3CCCCC3)C2)cc1
Reply text: 8.24

----------
# key: entry, value: bioavailability
Assay: Oral bioavailability in dog at […]
Assay type: ADME, organism-based, Canis lupus familiaris
Settings: in vivo
Answer in %, number only, no unit symbol.

Guide cases for bioavailability, answers given:
COMPOUND SMILES | RESULT UNITS | bioavailability
COC[C@]12Cc3cnn(-c4ccc(F)cc4)c3C=C1CCN(S(=O)(=O)c1ccc(C(F)(F)F)cc1)C2 | % | 58
COC[C@]12Cc3cnn(-c4ccc(F)cc4)c3C=C1CCN(S(=O)(=O)c1ccc(F)cc1)C2 | % | 54
COC[C@]12Cc3cnn(-c4ccc(F)cc4)c3C=C1CCN(S(=O)(=O)c1ccccc1)C2 | % | 20

Consider the additional molecule presented here.
Inquiry: Please report the recorded bioavailability for CC(C)(C)c1ccc(S(=O)(=O)N2CCC3=Cc4c(cnn4-c4ccc(F)cc4)C[C@]3(C)C2)cc1 .
Reply text: 26

----------
Assay: Oral bioavailability in rat
Type: ADME, organism-based
Conditions: in vivo
# key: entry, value: bioavailability
Answer in %, number only, no unit symbol.

Guide cases for bioavailability, answers given:
COMPOUND SMILES | bioavailability [%]
CC(C)(C)c1ccc(S(=O)(=O)N2CCC3=Cc4c(cnn4-c4ccc(F)cc4)C[C@]3(CN3CCCC3)C2)cc1 | 2
CC(C)NC[C@]12Cc3cnn(-c4ccc(F)cc4)c3C=C1CCN(S(=O)(=O)c1ccc(C(C)(C)C)cc1)C2 | 5
COCCOC[C@]12Cc3cnn(-c4ccc(F)cc4)c3C=C1CCN(S(=O)(=O)c1ccc(C(C)(C)C)cc1)C2 | 0
CN(C)C[C@]12Cc3cnn(-c4ccc(F)cc4)c3C=C1CCN(S(=O)(=O)c1ccc(C(C)(C)C)cc1)C2 | 0
CC(C)(C)c1ccc(S(=O)(=O)N2CCC3=Cc4c(cnn4-c4ccc(F)cc4)C[C@]3(COCCC#N)C2)cc1 | 2
CCNC[C@]12Cc3cnn(-c4ccc(F)cc4)c3C=C1CCN(S(=O)(=O)c1ccc(C(C)(C)C)cc1)C2 | 0
COCCOC[C@]12Cc3cnn(-c4ccc(F)cc4)c3C=C1CCN(S(=O)(=O)c1ccc(C)cc1)C2 | 8
CC(C)(C)c1ccc(S(=O)(=O)N2CCC3=Cc4c(cnn4-c4ccc(F)cc4)C[C@]3(CN3CCC3)C2)cc1 | 4

Consider the additional molecule presented here.
Inquiry: Please report the recorded bioavailability for COCCNC[C@]12Cc3cnn(-c4ccc(F)cc4)c3C=C1CCN(S(=O)(=O)c1ccc(C(C)(C)C)cc1)C2 .
Reply text: 0

----------
Target: Glucocorticoid receptor (Homo sapiens, UniProt P04150)
Test: Antagonist activity at GR in SW1353/MMTV5 cells assessed as inhibition of dexamethasone-induced luciferase expression
Format: functional, cell-based
# key: entry, value: pKi
Bear in mind: pKi is minus log10 of a mol/L concentration; give just that figure.

Guide cases for pKi, answers given:
MOLECULE | OBSERVABLE | REPORTED
COC[C@]12Cc3cnn(-c4ccc(F)cc4)c3C=C1CCN(S(=O)(=O)c1ccc(C(C)(C)C)cc1)C2 | pKi | 8.11
CC(C)(C)c1ccc(S(=O)(=O)N2CCC3=Cc4c(cnn4-c4ccc(F)cc4)C[C@]3(C)C2)cc1 | pKi | 7.28
CC(C)(C)c1ccc(S(=O)(=O)N2CCC3=Cc4c(cnn4-c4ccc(F)cc4)C[C@]3(CO)C2)cc1 | pKi | 7.33
COC[C@]12Cc3cnn(-c4ccc(F)cc4)c3C=C1CCN(S(=O)(=O)c1ccc(C)cc1)C2 | pKi | 8.24
COCCOC[C@]12Cc3cnn(-c4ccc(F)cc4)c3C=C1CCN(S(=O)(=O)c1ccc(C(C)(C)C)cc1)C2 | pKi | 9.22

Inquiry: Please report the recorded pKi for CC(C)(C)c1ccc(S(=O)(=O)N2CCC3=Cc4c(cnn4-c4ccc(F)cc4)CC3(Cc3ccc(F)cc3)C2)cc1 (racemic) .
Reply text: 7.85

Inquiry: How about this molecule: COC[C@]12Cc3cnn(-c4ccc(F)cc4)c3C=C1CCN(S(=O)(=O)c1ccc(C(F)(F)F)cc1)C2
Reply text: 7.55

Inquiry: How about this molecule: COCCNC[C@]12Cc3cnn(-c4ccc(F)cc4)c3C=C1CCN(S(=O)(=O)c1ccc(C(C)(C)C)cc1)C2
Reply text: 8.51

Inquiry: How about this molecule: CC(C)(C)c1ccc(S(=O)(=O)N2CCC3=Cc4c(cnn4-c4ccc(F)cc4)C[C@]3(CNCCO)C2)cc1
Reply text: 7.55

Inquiry: How about this molecule: COC[C@]12Cc3cnn(-c4ccc(F)cc4)c3C=C1CCN(S(=O)(=O)c1ccc(F)cc1)C2
Reply text: 7.48
